Test system: BT-549 breast
protocol summary: NCI-60 one-dose screen, 48 h (100 = growth as untreated, 0 = no growth, -100 = all killed)
condition parameters: 10 µM
Compounds without any hit were thinned out: in the full panel of roughly 83,000, 20% have a hit.
attribute measured: growth (%)
State just the number; it will be interpreted in %.

O=C(/C=C/c1ccccc1Cl)c1nc2ccccc2n1Cc1ccc(F)cc1 -92.2
COc1cc(OC)c(S(=O)(=O)N(CCCl)CCCl)cc1C(=O)/C=C/c1cc(OC)c(OC)c(OC)c1 -84.7
COC(=O)C[C@](O)(CCC(C)C)C(=O)O[C@@H]1C(OC)=C[C@]23CCCN2CCc2cc4c(cc2[C@H]13)OCO4 -42
CC[C@]12C=CCN3CC[C@@]4(c5ccc(OC)cc5N(C)[C@H]4[C@@](O)(C(=O)OC)[C@@H]1OC(=O)CCC[P+](c1ccc(C)cc1)(c1ccc(C)cc1)c1ccc(C)cc1)[C@@H]32 -96.9

Under BT-549 breast: growth value of O=C(/C=C/c1ccc(Cl)cc1)c1nc2ccccc2n1Cc1ccc(Br)cc1 ?
37.2

###

Listed here: items and their measured growth.
Test system: HL-60(TB) leukemia
protocol summary: NCI-60 one-dose screen, 48 h (100 = growth as untreated, 0 = no growth, -100 = all killed)
condition parameters: 10 µM unless noted
Protocol: Growth inhibition of the HL-60(TB) human tumor cell line is measured as a screen for anti-cancer activity. Cells are grown in 96 well plates and exposed to the test compound for 48 hours. Compounds are tested at a single concentration, which is 10^-5 M for most compounds. The reported endpoint is percent growth (GI% or GIPRCNT), where numbers from 0 - 100% represent growth inhibition, and numbers from -100% - 0 represent cell death. For example, a value of 40 represents 60% growth inhibition. […]
About 83,000 compounds went through this panel and 20% of them were active in at least one assay; those are over-represented in the sample as a whole.
State just the number; it will be interpreted in %.

Here is how some compounds turned out for growth.
compound	growth (%)
C=C1CC[C@@H]2[C@]3(C)COC(c4ccco4)O[C@@H]3CC[C@@]2(C)[C@@H]1C/C=C1/C(=O)OCC1OC(C)=O (stereo partly drawn)	-5.13
C#C[C@]1(O)CC[C@H]2[C@@H]3CC=C4c5sc(Nc6ccc(N(C)C)cc6)nc5CC[C@]4(C)[C@H]3CC[C@@]21C	-26.1
O=C(Nc1cccc(-n2cnc3cc(-c4ccc(O)cc4)ccc32)c1)C1CC1	-16.7
COc1cc2cc(C(=O)N3C[C@@H](CCl)c4c3cc(OC(=O)N(C)CCSSCCN3CCOCC3)c3ccccc43)[nH]c2c(OC)c1OC	-39.6

Need growth, item O=S(=O)(Nc1cccc(-n2cnc3cc(-c4ccc(O)cc4)ccc32)c1)C1CC1
-19.9

###

Test system: SNB-19 CNS
protocol summary: NCI-60 one-dose screen, 48 h (100 = growth as untreated, 0 = no growth, -100 = all killed)
condition parameters: 10 µM
Description: Growth inhibition of the SNB-19 human tumor cell line is measured as a screen for anti-cancer activity. Cells are grown in 96 well plates and exposed to the test compound for 48 hours. Compounds are tested at a single concentration, which is 10^-5 M for most compounds. The reported endpoint is percent growth (GI% or GIPRCNT), where numbers from 0 - 100% represent growth inhibition, and numbers from -100% - 0 represent cell death. For example, a value of 40 represents 60% growth inhibition. […]
The panel holds about 83,000 compounds, 20% with a hit somewhere; the sample as a whole holds those more often.
Please enter T where growth is greater than or equal to 60%, and F where it is lower.

Is reported growth greater than or equal to 60% here: C=CC[Se]C(=O)c1cncc(C(=O)[Se]CC=C)c1
F

Entry to check: O=C(/C=C/c1ccco1)c1nc2ccccc2n1Cc1ccc(F)cc1
T

Entry to check: COC(=O)C[C@](O)(CCC(C)C)C(=O)O[C@H]1C(OC)=C[C@@]23CCCN2CCc2cc4c(cc2[C@@H]13)OCO4
F

Entry to check: CCOP(=O)(CC(F)(F)C(F)(F)F)OCC
T

Entry to check: CCOC(=O)C1=C(Nc2ccccc2)C(=O)OC12C(=O)Nc1ccccc12 (stereo not drawn)
T

Origin of values: PubChem BioAssay (NCI)
